// data source = paper PMC9841532

Examples of compounds with documented % at 1 μM hA2A (percentage displacement of specific binding) follow.
# system-under-test: hA2AAR (Homo sapiens)
# Construct: expressed in transfected cells; host or cells: HeLa (HeLa-A2A) cell membranes
# Sequence (P29274 whole entry): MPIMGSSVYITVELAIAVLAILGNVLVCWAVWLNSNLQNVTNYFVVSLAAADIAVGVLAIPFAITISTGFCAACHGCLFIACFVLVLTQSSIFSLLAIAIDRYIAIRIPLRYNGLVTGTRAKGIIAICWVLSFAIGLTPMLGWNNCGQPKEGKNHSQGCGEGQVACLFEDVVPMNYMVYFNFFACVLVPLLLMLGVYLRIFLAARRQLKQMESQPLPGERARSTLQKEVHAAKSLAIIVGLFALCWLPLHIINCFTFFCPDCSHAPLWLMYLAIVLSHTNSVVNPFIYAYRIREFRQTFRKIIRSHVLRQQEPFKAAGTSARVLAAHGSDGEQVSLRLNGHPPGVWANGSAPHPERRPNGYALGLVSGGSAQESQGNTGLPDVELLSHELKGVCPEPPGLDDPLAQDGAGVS
# procedure-details: Radioligand binding competition, [3H]ZM241385, membranes from HeLa-A2A cells
# cond: 1 μM, [3H]ZM241385, human HeLa cells, n = 2
Lab book: enter the figure in %, no units written.

Take a look at these entries with their results.
compound	observed-result
CCOC(=O)C1=C(C)Nc2nc3cc(F)c(F)cc3n2C1c1cccs1 (stereo not drawn) [14e]	3
CC1=C(C(=O)OC(C)C)C(c2ccsc2)n2c(nc3cc(Br)ccc32)N1 (stereo not drawn) [16x]	1

Input: Provide % at 1 μM hA2A (percentage displacement of specific binding), recorded with hA2AAR (Homo sapiens), of CCOC(=O)C1=C(C)Nc2nc3cc(F)c(F)cc3n2C1c1ccoc1 (stereo not drawn) [14c]
Output: 36

Input: Would you please give the reported % at 1 μM hA2A (percentage displacement of specific binding) of CCOC(=O)C1=C(C)Nc2nc3cc(Br)c(Br)cc3n2C1c1cccs1 (stereo not drawn) [14u] with hA2AAR (Homo sapiens)?
Output: 7

Input: Provide measured % at 1 μM hA2A (percentage displacement of specific binding) on hA2AAR (Homo sapiens) for CC1=C(C(=O)OC(C)C)C(c2ccoc2)n2c(nc3cc(Br)c(Br)cc32)N1 (stereo not drawn) [14t] please.
Output: 1

Input: Please indicate recorded % at 1 μM hA2A (percentage displacement of specific binding) of CC1=C(C(=O)OC(C)C)C(c2ccco2)n2c(nc3cc(Br)ccc32)N1 (stereo not drawn) [16r] measured with hA2AAR (Homo sapiens).
Output: 2

====

# procedure-details: Human microsomal stability
# Assay type: in vitro ADME
# cond: human microsomes, sampling time 60 min
microsomal stability percent (percentage remanent): recorded values
Use % as the unit, but write only the number.

Consider the reported microsomal stability percent (percentage remanent) for these compounds:
compound	unit-symbol	observed-result
CC1=C(C(=O)OC(C)C)C(c2ccco2)n2c(nc3cc(Cl)ccc32)N1 (stereo not shown) [16j]	%	22.75
CC1=C(C(=O)OC(C)C)C(c2ccco2)n2c(nc3cc(F)c(F)cc32)N1 (stereo not shown) [14b]	%	20.97
CC1=C(C(=O)OC(C)C)C(c2cocn2)n2c(nc3cc(F)ccc32)N1 (stereo not shown) [18b]	%	35.15
CC1=C(C(=O)OC(C)C)C(c2ccco2)n2c(nc3cc(F)ccc32)N1 (stereo not shown) [16b]	%	19.83
CC1=C(C(=O)OC(C)C)C(c2ccco2)n2c(nc3cc(Br)ccc32)N1 (stereo not shown) [16r]	%	32.13
CC1=C(C(=O)OC(C)C)C(c2ccco2)n2c(nc3ccc(Cl)cc32)N1 (stereo not shown) [15j]	%	16.83

Now let's try a different one.
Input: Quick one: give measured microsomal stability percent (percentage remanent) for CC1=C(C(=O)OC(C)C)C(c2ccoc2)n2c(nc3cc(Cl)ccc32)N1 (stereo not shown) [16l]
Output: 41.02

====

# procedure-details: Solubility determination (nephelometry)
# Type: physicochemical
# cond: 1:99 DMSO/PSB buffer, PBS pH 7, 37 °C
So basically: solubility at 4 h at 50 µM or higher? That is Fulfilled. Lower than 50 µM? That is Not fulfilled.

Check out these entries, answers already filled in.
compound	assigned-class
CC1=C(C(=O)OC(C)C)C(c2ccco2)n2c(nc3ccc(Cl)cc32)N1 (centres unmarked) [15j]	Fulfilled
CC1=C(C(=O)OC(C)C)C(c2ccco2)n2c(nc3cc(F)ccc32)N1 (centres unmarked) [16b]	Not fulfilled
CC1=C(C(=O)OC(C)C)C(c2ccoc2)n2c(nc3cc(Cl)ccc32)N1 (centres unmarked) [16l]	Not fulfilled
CC1=C(C(=O)OC(C)C)C(c2cocn2)n2c(nc3cc(F)ccc32)N1 (centres unmarked) [18b]	Fulfilled

Input: Does the reported solubility at 4 h for CC1=C(C(=O)OC(C)C)C(c2ccco2)n2c(nc3cc(F)c(F)cc32)N1 (centres unmarked) [14b] fall at or above the 50 µM mark?
Output: Fulfilled

Input: Item CC(=O)[C@H]1CC[C@H]2[C@@H]3CCC4=CC(=O)CC[C@]4(C)[C@H]3CC[C@]12C [progesterone, reference compound] with solubility at 4 h of 50 µM or above?
Output: Not fulfilled

Input: Check the entry CC1=C(C(=O)OC(C)C)C(c2ccco2)n2c(nc3cc(Cl)ccc32)N1 (centres unmarked) [16j] : does solubility at 4 h equal or exceed 50 µM?
Output: Not fulfilled

Input: # check: solubility at 4 h of CC1=C(C(=O)OC(C)C)C(c2ccco2)n2c(nc3cc(Br)ccc32)N1 (centres unmarked) [16r] is greater than or equal to 50 µM
Output: Fulfilled

====

# system-under-test: hA3AR (Homo sapiens, UniProt P0DMS8)
# Construct: expressed in transfected cells; host or cells: HeLa (HeLa-A3) cell membranes
# Sequence (P0DMS8 whole entry): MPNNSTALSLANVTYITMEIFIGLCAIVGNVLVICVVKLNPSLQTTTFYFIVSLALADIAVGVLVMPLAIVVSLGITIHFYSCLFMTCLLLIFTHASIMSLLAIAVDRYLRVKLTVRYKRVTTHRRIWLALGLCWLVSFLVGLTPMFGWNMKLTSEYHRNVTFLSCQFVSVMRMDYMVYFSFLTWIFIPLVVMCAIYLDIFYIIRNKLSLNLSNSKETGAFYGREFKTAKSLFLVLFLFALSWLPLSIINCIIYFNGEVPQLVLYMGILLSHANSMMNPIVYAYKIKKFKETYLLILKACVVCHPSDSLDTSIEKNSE
# procedure-details: Radioligand binding competition, [3H]NECA, membranes from HeLa-A3 cells
# cond: 1 μM, [3H]NECA, human HeLa cells, n = 2
Catalogue of % at 1 μM hA3 (percentage displacement of specific binding) readings, one per entry.
Lab book: enter the figure in %, no units written.

Worked examples, 10 molecules total:
molecule	observed-result
CCOC(=O)C1=C(C)Nc2nc3cc(Br)ccc3n2C1c1ccsc1 (stereo not shown) [16w]	1
CCOC(=O)C1=C(C)Nc2nc3ccc(F)cc3n2C1c1cccs1 (stereo not shown) [15e]	11
CC1=C(C(=O)OC(C)C)C(c2ccsc2)n2c(nc3ccc(F)cc32)N1 (stereo not shown) [15h]	1
CC1=C(C(=O)OC(C)C)C(c2ccco2)n2c(nc3cc(F)c(F)cc32)N1 (stereo not shown) [14b]	14
CC1=C(C(=O)OC(C)C)C(c2ccco2)n2c(nc3cc(F)ccc32)N1 (stereo not shown) [16b]	3
CC1=C(C(=O)OC(C)C)C(c2cccs2)n2c(nc3cc(Br)c(Br)cc32)N1 (stereo not shown) [14v]	3
CCOC(=O)C1=C(C)Nc2nc3ccc(F)cc3n2C1c1ccoc1 (stereo not shown) [15c]	5
CC1=C(C(=O)OC(C)C)C(c2ccsc2)n2c(nc3ccc(Br)cc32)N1 (stereo not shown) [15x]	1
CCOC(=O)C1=C(C)Nc2nc3cc(F)c(F)cc3n2C1c1ccsc1 (stereo not shown) [14g]	5
CCOC(=O)C1=C(C)Nc2nc3cc(Cl)ccc3n2[C@@H]1c1cocn1 [(S)-18c]	6

Input: In one line, give reported % at 1 μM hA3 (percentage displacement of specific binding) of the entry CC1=C(C(=O)OC(C)C)[C@H](c2ccco2)n2c(nc3cc(F)ccc32)N1 [(R)-16b] .
Output: 19

Input: Find the measured % at 1 μM hA3 (percentage displacement of specific binding) of CCOC(=O)C1=C(C)Nc2nc3ccc(Cl)cc3n2C1c1cccs1 (stereo not shown) [15m] and report it.
Output: 1

Input: Give % at 1 μM hA3 (percentage displacement of specific binding) for the following molecule: CCOC(=O)C1=C(C)Nc2nc3ccc(F)cc3n2C1c1ccsc1 (stereo not shown) [15g]
Output: 3

Input: Determine from records and report % at 1 μM hA3 (percentage displacement of specific binding) for CC1=C(C(=O)OC(C)C)C(c2ccco2)n2c(nc3cc(Cl)c(Cl)cc32)N1 (stereo not shown) [14j]
Output: 7

Input: Respond only with % at 1 μM hA3 (percentage displacement of specific binding) recorded for CC1=C(C(=O)OC(C)C)C(c2cccs2)n2c(nc3cc(Cl)ccc32)N1 (stereo not shown) [16n]
Output: 1

Input: Item CC1=C(C(=O)OC(C)C)C(c2ccco2)n2c(nc3cc(Br)c(Br)cc32)N1 (stereo not shown) [14r] : provide % at 1 μM hA3 (percentage displacement of specific binding)
Output: 21

Input: Recall and state the measured % at 1 μM hA3 (percentage displacement of specific binding) for CCOC(=O)C1=C(C)Nc2nc3cc(Br)c(Br)cc3n2C1c1ccoc1 (stereo not shown) [14s] .
Output: 10

Input: Item CC1=C(C(=O)OC(C)C)[C@@H](c2ccco2)n2c(nc3cc(Br)ccc32)N1 [(S)-16r] : provide % at 1 μM hA3 (percentage displacement of specific binding)
Output: 6

Input: Provide one value: measured % at 1 μM hA3 (percentage displacement of specific binding) of CC1=C(C(=O)OC(C)C)C(c2cccs2)n2c(nc3cc(Br)ccc32)N1 (stereo not shown) [16v]
Output: 1

====

# system-under-test: hA2AAR (Homo sapiens)
# Construct: expressed in transfected cells; host or cells: HeLa (HeLa-A2A) cell membranes
# procedure-details: Radioligand binding competition, [3H]ZM241385, membranes from HeLa-A2A cells
# cond: 1 μM, [3H]ZM241385, human HeLa cells, n = 2
reported-property: % at 1 μM hA2A (percentage displacement of specific binding) (%)
Record the value in %, omitting the unit from your answer.

Take a look at these entries with their results.
compound	observed-result
CCOC(=O)C1=C(C)Nc2nc3cc(Br)ccc3n2C1c1cccs1 (stereo not shown) [16u]	3
CCOC(=O)C1=C(C)Nc2nc3cc(F)ccc3n2C1c1ccoc1 (stereo not shown) [16c]	21
CCOC(=O)C1=C(C)Nc2nc3cc(Br)ccc3n2C1c1ccsc1 (stereo not shown) [16w]	9

From here, focus on the item given below.
Input: Tell me measured % at 1 μM hA2A (percentage displacement of specific binding) for CC1=C(C(=O)OC(C)C)C(c2ccoc2)n2c(nc3cc(F)ccc32)N1 (stereo not shown) [16d] please.
Output: 31
